Tested on: Mus musculus
experimental-protocol: Antidepressant activity in mouse assessed as antagonism of tetrabenazine-induced symptoms at 10 mg/kg, ip administered 30 mins before 35 mg/kg, ip tetrabenazine challenge measured after 30 mins by arousal test
Type: functional
measured-metric: inhibition (INH)

Worked cases, inhibition (INH) given:
C#CCN(C)Cc1ccccc1 [PARGYLINE]	60%
CCCCOc1ccc(C2=NC(C)CN2)c2ccccc12 (stereo not given)	<60%
CCCOc1ccc(C2=NCCN2)c2ccccc12	60%
CCCCOc1ccc(C2=NCCCN2)c2ccccc12	30%
CCCCOc1ccc(C2=NCCN2)c2ccccc12	60%

Pending molecule:
Incoming: Bench note: what inhibition (INH) did Oc1ccc(C2=NCCN2)c2ccccc12 show?
Outgoing: <30%
